Test system: Cronobacter sakazakii DPC 6440
quantityMeasured: MIC

Please review the entries below; each comes with its answer.
compound	result
CC(C)C[C@H](NC(=O)CNC(=O)[C@H](CCC(N)=O)NC(=O)[C@H](Cc1cnc[nH]1)NC(=O)[C@H](CCCCN)NC(=O)[C@H](C)N)C(=O)N1CCC[C@H]1C(=O)N[C@@H](CCC(N)=O)C(=O)N[C@@H](CCC(=O)O)C(=O)O [AKHQGLPQE]	≥ 1250 µM
CC[C@H](C)[C@H](NC(=O)[C@@H](N)Cc1c[nH]c2ccccc12)C(=O)N[C@@H](CCC(N)=O)C(=O)N1CCC[C@H]1C(=O)N[C@@H](CCCCN)C(=O)N[C@H](C(=O)N[C@@H](CCCCN)C(=O)N[C@H](C(=O)N[C@H](C(=O)N1CCC[C@H]1C(=O)N[C@@H](Cc1ccc(O)cc1)C(=O)N[C@H](C(=O)N[C@@H](CCCN=C(N)N)C(=O)N[C@@H](Cc1ccc(O)cc1)C(=O)N[C@@H](C)C(=O)O)C(C)C)[C@@H](C)CC)C(C)C)[C@@H](C)O [WIQPKTKVIPYVRYA]	≥ 78.1 µM
CC[C@H](C)[C@H](NC(=O)[C@H](Cc1c[nH]c2ccccc12)NC(=O)[C@@H]1CCCN1C(=O)[C@H](CCCCN)NC(=O)[C@H](CCSC)NC(=O)[C@H](C)NC(=O)[C@@H](N)CCCCN)C(=O)N[C@@H](CCC(N)=O)C(=O)N1CCC[C@H]1C(=O)N[C@@H](CCCCN)C(=O)N[C@H](C(=O)N[C@@H](CCCCN)C(=O)N[C@H](C(=O)N[C@H](C(=O)N1CCC[C@H]1C(=O)O)[C@@H](C)CC)C(C)C)[C@@H](C)O [KAMKPWIQPKTKVIP]	≥ 1250 µM

Then there is this compound:
**Query** Test system Cronobacter sakazakii DPC 6440; read-out MIC; what value for CC[C@H](C)[C@H](NC(=O)[C@@H](N)Cc1c[nH]c2ccccc12)C(=O)N[C@@H](C)C(=O)N1CCC[C@H]1C(=O)N[C@@H](CCCCN)C(=O)N[C@H](C(=O)N[C@@H](CCCCN)C(=O)N[C@H](C(=O)N[C@H](C(=O)N1CCC[C@H]1C(=O)N[C@@H](Cc1ccc(O)cc1)C(=O)N[C@H](C(=O)N[C@@H](CCCN=C(N)N)C(=O)N[C@@H](Cc1ccc(O)cc1)C(=O)N[C@@H](CC(C)C)C(=O)O)C(C)C)[C@@H](C)CC)C(C)C)[C@@H](C)O [WIAPKTKVIPYVRYL] ?
**Result** ≥ 78.1 µM

====

System: Bacillus cereus
quantityMeasured: MIC (µM)
Use µM as the unit, but write only the number.

**Query** MIC for `CC[C@H](C)[C@H](NC(=O)[C@@H](NC(=O)[C@H](CC(=O)O)NC(=O)[C@H](Cc1ccccc1)NC(=O)[C@H](CC(C)C)NC(=O)CN)C(C)C)C(=O)N[C@@H](C)C(=O)N[C@@H](CCCCN)C(=O)N[C@H](C(=O)N[C@@H](C)C(=O)N[C@@H](CO)C(=O)N[C@H](C(=O)N[C@H](C(=O)N[C@@H](CCCCN)C(=O)N[C@@H](CCCCN)C(=O)N[C@@H](CC(C)C)C(N)=O)[C@@H](C)CC)C(C)C)C(C)C` ?
**Result** 7.05
